# Lookup of reported Turnover keyed by entry
Test system: HPPD polypeptides
Assay: coupled HPPD activity assay: turnover and residual turnover in crude extracts
Assay type: biochemical, Pseudomonas fluorescens
Settings: absence of Cmpd. 1; high substrate concentration; kinetic changes in absorbance (OD) at 320 nm, 30 min
Protocol: The activity of HPPD polypeptides was determined in absence or presence of HPPD inhibitors using the coupled HPPD activity assay (FIG. 1). […] Residual turnover were determined according to Example 3 by measuring total change in signal in the presence and absence of Cmpd. […]

Molecule	Turnover
40 (protein, mutant HPPD polypeptide) MADLYENPMGLMGFEFIEFASPTPGTLEPIFEIMGFTKVATHRSKNVHLYRQGEINLILNNEPNSIASYFAAEHGPSVCGMAFRVKDSQKAYNRALELGAQPIHIDTGPMELNLPAIKGIGGAPLYLIDRFGEGSSIYDIDFVYLEGVERNPVGAGLKVIDHLTHNVYRGRMVYWANFYEKLFNFREARYFDIKGEYTGLTSKAMSAPDGMIRIPLNEESSKGAGQIEEFLMQFNGEGIQHVAFLTDDLVKTWDALKKIGMRFMTAPGDEYYEMLEGRLPDHGEPVDQLQARGILLDGSSVEGDKRLLLQIFSETLMGPVFFEFIQRKGDDGFGPDSFKVLFESVERDQVRRGVLTAD	0.134

Then there is this molecule:
Form field Turnover, entry 32 (protein, mutant HPPD polypeptide) MADLYENPMGLMGFEFIEFASPTPGTLEPIFEIMGFTKVATHRSKNVHLYRQGEINLILNNEPNSIASYFAAEHGPSVCGMAFRVKDSQKAYNRALELGAQPIHIDTGPMELNLPAIKGIGGAPLYLIDRFGEGSSIYDIDFVYLEGVERNPVGAGLKVIDHLTHNVYRGRMVYWANFYEKLFNFREARYFDIKGEYTGLTSKAMSAPDGMIRIPLNEESSKGAGQIEEFLMQFNGEGIQHVAFLTDDLVKTWDALKKIGMRFMTAPPDTYYEMLEGRLPDHGEPVDQLQARGILLDGSSVEGDKRLLLQIFSETLMGPVFFEFIQRKGDDGFGPHSFKVLFESVERDQVRRGVLTAD : 0.326
